FYI, the data here is from PubChem BioAssay (NCI).

System: NCI-H226 lung
Measurement Description: NCI-60 one-dose screen, 48 h (100 = growth as untreated, 0 = no growth, -100 = all killed)
Experimental Parameters: 10 µM unless noted
Compounds without any hit were thinned out: in the full panel of roughly 83,000, 20% have a hit.
Attribute Measured: growth (%)
All answers are understood in %, so give the number only.

Examples from the recorded data:
{"Structure Smiles": "O=C1c2ccccc2OC=C(c2ccccc2)N1CCCCN1CCCCC1", "Unit Annotation": "%", "growth": 84.3}
{"Structure Smiles": "Nc1ncnc2c1ccn2-c1cccc(NC(=O)c2cccc(C(F)(F)F)c2)c1", "Unit Annotation": "%", "growth": 70.2}
{"Structure Smiles": "CC[C@@]1(O)C(=O)OCc2c1cc1n(c2=O)Cc2c-1nc1ccccc1c2/C=N/OC(C)(C)C", "Unit Annotation": "%", "growth": -78.7}
{"Structure Smiles": "COC1=C(OC)C(=O)C=CC1=O", "Unit Annotation": "%", "growth": 107}
{"Structure Smiles": "Oc1ccc(O)c(-[n+]2ccccc2)c1", "Unit Annotation": "%", "growth": 93}
{"Structure Smiles": "C=CC(=O)Nc1cccc(Nc2nc(Nc3ccc(OCCOC(F)F)cc3)ncc2F)c1", "Unit Annotation": "%", "growth": 22.5}
{"Structure Smiles": "Clc1ccc2c(NCCNc3nc(Cl)nc4ccccc34)ccnc2c1", "Unit Annotation": "%", "growth": -80}

Next molecule, please.
query: Could you tell me which growth is on file for CCOC(=O)c1noc2c1CCc1c-2cn(Cc2ccc(OC)cc2)c1-c1cc(OC)c(OC)c(OC)c1 ?
result: 40.8
